These data points were gathered from PubChem BioAssay (NCI).

Test system: LOX IMVI melanoma
Experiment description: NCI-60 one-dose screen, 48 h
Cond: 10 µM unless noted
The panel holds about 83,000 compounds, 20% with a hit somewhere; the sample as a whole holds those more often. Calls of active or inactive are those of the source. Rule for the calls: active = growth percent below 10; inactive = the rest.
Hello, when you answer, please use one of the following outcomes: YES for active, NO for inactive

**Query** Per the assay record, what outcome was assigned to `O=C(O)c1cc(N=Nc2ccc(-c3ccc(N=Nc4c(S(=O)(=O)O)cc5ccc(Nc6ccccc6)cc5c4O)cc3)cc2)ccc1O` ?
**Result** NO

**Query** Per the assay record, what outcome was assigned to `COc1cc(NCC(=O)Nc2cc(Nc3cccc(C(F)(F)F)c3)ncn2)c(Cl)c(OC)c1Cl` ?
**Result** NO

**Query** Per the assay record, what outcome was assigned to `CC(C)(C)c1nc2c(s1)c1nc(N)ncc1c1ccc(NS(=O)(=O)c3c(F)cccc3F)c(F)c12` ?
**Result** NO

**Query** Per the assay record, what outcome was assigned to `c1ccc2nc(N3CCOCC3)c(N3CCCCC3)nc2c1` ?
**Result** NO

**Query** Per the assay record, what outcome was assigned to `CC(=O)[C@@H]1CC[C@]2(C(=O)O)CC[C@]3(C)[C@H](CC[C@@H]4[C@@]5(C)Cc6c([nH]c7ccccc67)C(C)(C)[C@@H]5CC[C@]43C)[C@@H]12` ?
**Result** NO

**Query** Per the assay record, what outcome was assigned to `C=C1C(=O)O[C@H]2[C@H]1CC/C(COC(=O)CCC(=O)OC/C1=C/CC[C@@]3(C)O[C@H]3[C@H]3OC(=O)C(=C)[C@@H]3CC1)=C\CC[C@@]1(C)O[C@@H]21` ?
**Result** NO

**Query** Per the assay record, what outcome was assigned to `O=c1[nH]c(-c2cccc(F)c2)cc2cc(F)ccc12` ?
**Result** NO

**Query** Per the assay record, what outcome was assigned to `Cc1nccc2c3ccc(OCc4cn(-c5ccc(Cl)cc5)nn4)cc3n(CC(C)C)c12` ?
**Result** YES

###

Test system: 786-0 renal
Experiment description: NCI-60 one-dose screen, 48 h (100 = growth as untreated, 0 = no growth, -100 = all killed)
Cond: 10 µM unless noted
Compounds without any hit were thinned out: in the full panel of roughly 83,000, 20% have a hit.
Metric: growth (%)
Dear colleague, please return just the value in %, with no unit written.

**Query** Supply growth value. Item: `CCc1ccc(OCc2ccccc2C(=O)Nc2ccc3nc(C)cc(N)c3c2)cc1`
**Result** -88.9

**Query** Supply growth value. Item: `NC[C@@H]1CCN(c2cc3c(cc2F)c(=O)n(N)c(=O)n3Cc2ccc(-c3ccccc3)cc2)C1`
**Result** 66.2

**Query** Supply growth value. Item: `N#CC(C#N)=C1NC(c2ccccc2)=C(c2ccccc2)C(c2ccccc2Cl)=C1C#N`
**Result** 97.6

**Query** Supply growth value. Item: O=CN1N=C(c2ccc3c(c2)OCO3)CC1c1cccc(Nc2ccnc3cc(C(F)(F)F)ccc23)c1 (stereo unspecified)
**Result** 90.7

**Query** Supply growth value. Item: O=C(Nc1ccc(S(=O)(=O)NC2CCCCCC2)cc1)C(c1ccccc1)S(=O)(=O)c1ccc(F)cc1 (stereo unspecified)
**Result** 20.4

**Query** Supply growth value. Item: `Nc1ccc2c(c1)C(=O)C(=O)c1c-2nc2ccccn12`
**Result** 71.4

**Query** Supply growth value. Item: `COc1ccc(/C=C/C(=O)Nc2ncnc3nc[nH]c23)cc1`
**Result** 95.6

**Query** Supply growth value. Item: `COCCOCCOCc1n(Cc2ccc3ccccc3c2)c2ccccc2[n+]1Cc1ccc2ccccc2c1`
**Result** 23.6

**Query** Supply growth value. Item: `C=C1C(=O)O[C@H]2[C@H]1CC/C(COC(=O)n1ccnc1)=C\CC[C@@]1(C)O[C@@H]21`
**Result** 102

**Query** Supply growth value. Item: `C#C[C@@]1(O)[C@@H](CO)O[C@@H](n2cc(Br)c3c(N)ncnc32)[C@@H]1O`
**Result** -48.5

**Query** Supply growth value. Item: `S=c1ssnc1-c1cc2ccccc2o1`
**Result** 24.1

**Query** Supply growth value. Item: `Cn1cc(-c2ccc3c(c2)ncn3-c2ccc(CC(=O)Nc3cc(C(C)(C)C)on3)cc2)cn1`
**Result** 17.6

**Query** Supply growth value. Item: `C#CCN(CCCOc1ccc(Cl)cc1Cl)CCCSC(=O)CCCCCN1/C(=C\C=C2/CCCC(/C=C/C3=[N+](CCCCCC(=O)[O-])c4ccccc4C3(C)C)=C2Cl)C(C)(C)c2ccccc21`
**Result** 25.4

**Query** Supply growth value. Item: `CCCn1c(N)c(C(N)=O)sc1=S`
**Result** 103

**Query** Supply growth value. Item: `C#Cc1ccccc1NC(=O)c1sc2nc3c(cc2c1N)CCCCC3`
**Result** 123

**Query** Supply growth value. Item: COc1cc2c(cc1OC)C(Sc1ccc(Cl)cc1)c1c(nc(N)c(C#N)c1N)O2 (stereo unspecified)
**Result** -17.1

**Query** Supply growth value. Item: `O=C1NC(SCc2ccc(F)cc2)=N/C1=C/c1cccc(OCc2ccc(Cl)cc2)c1`
**Result** -33.3

**Query** Supply growth value. Item: `C=CCn1c(CN2CCN(c3cc4c(cc3F)c(=O)c(C(=O)O)cn4C3CC3)CC2)n[nH]c1=S`
**Result** 95.6

**Query** Supply growth value. Item: O=C1NN(c2ccccc2)C(c2ccc3c(c2)OCO3)N2CCC[C@@H]12 (stereo partly specified)
**Result** 98.2

**Query** Supply growth value. Item: `O=C(CCCCCCCCC(=O)Nc1cccc(C2=NCCN2)c1)Nc1cccc(C2=NCCN2)c1`
**Result** 100

**Query** Supply growth value. Item: `COc1ccc2nc(-c3ccc(OC)c(OC)c3)cc(-c3nnc(SCC(=O)Nc4ccc(/C(C)=N\O)cc4)n3-c3ccccc3)c2c1`
**Result** 88.5

**Query** Supply growth value. Item: `Nc1ccc(C(=O)Nc2cccc(C(=O)Nc3ccc4c(O)c(N=Nc5ccc(N=Nc6ccc(S(=O)(=O)O)cc6)cc5)c(S(=O)(=O)O)cc4c3)c2)cc1`
**Result** 103

**Query** Supply growth value. Item: `CCOC(=O)c1c(C)nc2c(c1N)CC(=O)N2CCc1ccccc1`
**Result** 8.72

**Query** Supply growth value. Item: `COc1ccc(OCC(=O)OC(C)C)cc1`
**Result** 104

**Query** Supply growth value. Item: `COc1ccc2c(c1)OC13Oc4cc(OC)ccc4C=C1CCCCC3=C2`
**Result** 87.2

**Query** Supply growth value. Item: `COc1cc(N=Nc2cc(S(=O)(=O)O)cc3cc(S(=O)(=O)O)cc(O)c23)c(C)cc1N=Nc1c(S(=O)(=O)O)cc2cc(Nc3ccccc3)ccc2c1O`
**Result** 102

**Query** Supply growth value. Item: COc1ccc(C(C)c2cc(OC)c(OC)c(OC)c2)cc1 (stereo unspecified)
**Result** 22.6

**Query** Supply growth value. Item: `COc1cc(NCC(=O)Nc2cc(Nc3cccc(C(F)(F)F)c3)ncn2)c(Cl)c(OC)c1Cl`
**Result** 97.2

**Query** Supply growth value. Item: `Cc1cnc(SCc2ccc(Cl)cc2Cl)nc1Nc1ccc(Cl)c(Cl)c1`
**Result** 92.3

**Query** Supply growth value. Item: `COc1ccc(-c2nnc(N3CCN(C(=O)CN4CCN(c5ccccc5)CC4)CC3)nc2-c2ccc(OC)cc2)cc1`
**Result** 33.7

**Query** Supply growth value. Item: COc1c(O)cc2oc3cc(O[C@@H]4OC(C)[C@@H](O)[C@H](O)C4O)c(CC=C(C)C)c(O)c3c(=O)c2c1CC=C(C)C (stereo partly specified)
**Result** 101

**Query** Supply growth value. Item: `C=C1C(=O)O[C@H]2[C@H]1CC/C(COC(=O)CCCCCCC(=O)OC/C1=C/CC[C@@]3(C)O[C@H]3[C@H]3OC(=O)C(=C)[C@@H]3CC1)=C\CC[C@@]1(C)O[C@@H]21`
**Result** 20.9

**Query** Supply growth value. Item: `COc1ccc(NC(=O)c2ccc(Nc3ncnc4[nH]c(C)c(C)c34)cc2)cc1`
**Result** 101

**Query** Supply growth value. Item: `COC(=O)c1nc(-c2ccccc2)oc1S(=O)(=O)n1nc(C)cc1N`
**Result** 80.6

**Query** Supply growth value. Item: `CCOC(=O)c1c(C)nc2c(c1N)/C(=C/c1cccs1)C(=O)N2c1ccc(OC)cc1`
**Result** 5.33

**Query** Supply growth value. Item: `C[C@H](Oc1cc(-c2cnn(C3CCNCC3)c2)cnc1N)c1c(Cl)ccc(F)c1Cl`
**Result** 49.2
